Recorded log10 IC50 by entry
biological target: human recombinant H-PGDS (Homo sapiens); assay: Fluorescence Intensity h-PGDS TBA Enzyme Assay; assay type: biochemical; conditions: 1:175,000 human recombinant H-PGDS, highest inhibitor concentration typically 1 μM
MEASURED ENDPOINT: log10 IC50 (log10 of the value in nM)

INSERT INTO measurements (compound, recorded_measurement) VALUES
  ('COc1cccc(-c2ccc(C(=O)NCc3ccc(Cl)c(Cl)c3)cn2)c1', 2.18),
  ('O=C(NCCN1CCCCC1)c1ccc(-c2ccccc2)nc1', 1.07),
  ('Cc1cccc(-c2ccc(C(=O)NCCNc3ccccc3)cn2)c1', 1.60),
  ('Cc1cccc(-c2ccc(C(=O)NCC(=O)OCc3ccccc3)cn2)c1', 2.04),
  ('O=C(NCCC1CNCCO1)c1ccc(-c2ccc(F)cc2)nc1 (stereo not shown)', 2.84),
  ('COc1cccc(-c2ccc(C(=O)NCc3ccc(C)cc3)cn2)c1', 2.25),
  ('Cc1cccc(-c2ccc(C(=O)NCCN3CCCC3)cn2)c1', 2.70),
  ('CC(C)N1CCC(CNC(=O)c2ccc(-c3cccc(F)c3)nc2)C1 (stereo not shown)', 2.07);

###

target: human recombinant H-PGDS (Homo sapiens, UniProt O60760); test: Fluorescence Intensity h-PGDS TBA Enzyme Assay; type: biochemical; conditions: 1:175,000 human recombinant H-PGDS, highest inhibitor concentration typically 1 μM
Sequence (O60760 whole entry): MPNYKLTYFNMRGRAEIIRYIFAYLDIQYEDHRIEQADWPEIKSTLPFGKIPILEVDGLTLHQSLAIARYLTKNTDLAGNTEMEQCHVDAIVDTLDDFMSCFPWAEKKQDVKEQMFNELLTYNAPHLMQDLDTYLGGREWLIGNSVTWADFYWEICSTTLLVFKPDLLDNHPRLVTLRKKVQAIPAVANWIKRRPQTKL
pIC50: −log10 of the molar value.
MEASURED ENDPOINT: pIC50

INSERT INTO results (compound, relation, recorded_measurement) VALUES
  ('O=C(NCC1CCCN(c2nc(C(F)F)cc(=O)[nH]2)C1)c1ccc(-c2cccc(F)c2)nc1 (stereo not drawn)', '=', 7.81),
  ('Cc1ccc2c(c1)C(NC(=O)c1ccc(-c3cc(F)cc(F)c3)nc1)CC(C)(C)O2 (stereo not drawn)', '=', 7.27),
  ('O=C(NCCN1CCCC1)c1ccc(-c2cccc(F)c2)nc1', '=', 6.80),
  ('CCOC(=O)Cc1ccc(CNC(=O)c2ccc(-c3cccc(F)c3)nc2)cc1', '=', 7.52),
  ('O=C(NCc1ccco1)c1ccc(-c2cccc(F)c2)nc1', '=', 7.39),
  ('O=C(NCC1COc2ccccc2C1)c1ccc(-c2cc(F)cc(F)c2)nc1 (stereo not drawn)', '=', 7.41),
  ('CCOC(=O)CC(NC(=O)c1ccc(-c2cccc(OC)c2)nc1)c1ccc(Cl)cc1 (stereo not drawn)', '≤', 6.00),
  ('O=C(NCc1nc(-c2ccccc2)no1)c1ccc(-c2cccc(F)c2)nc1', '=', 7.23),
  ('CCC1CCN(CCNC(=O)c2ccc(-c3cccc(C)c3)nc2)CC1', '=', 7.41);

###

molecular target: human recombinant H-PGDS (Homo sapiens); experiment: Fluorescence Intensity h-PGDS TBA Enzyme Assay; type: biochemical; conditions: 1:175,000 human recombinant H-PGDS, highest inhibitor concentration typically 1 μM
pIC50: −log10 of the molar value.
MEASURED ENDPOINT: pIC50

INSERT INTO results (compound, assay_system, measured_endpoint, recorded_measurement) VALUES
  ('O=C(NCc1ccc(-n2cncn2)cc1)c1ccc(-c2ccc(F)cc2)nc1', 'human recombinant H-PGDS (Homo sapiens)', 'pIC50', 6.26),
  ('Cc1cccc(-c2ccc(C(=O)NCc3ccc(S(N)(=O)=O)cc3)cn2)c1', 'human recombinant H-PGDS (Homo sapiens)', 'pIC50', 7.59),
  ('CCN1CCC[C@@H]1CNC(=O)c1ccc(-c2cccc(F)c2)nc1', 'human recombinant H-PGDS (Homo sapiens)', 'pIC50', 7.37),
  ('COc1ccccc1-c1nnc(CNC(=O)c2ccc(-c3cccc(F)c3)nc2)o1', 'human recombinant H-PGDS (Homo sapiens)', 'pIC50', 7.70),
  ('O=C(NCCN1CCCCC1CO)c1ccc(-c2cccc(F)c2)nc1 (centres unmarked)', 'human recombinant H-PGDS (Homo sapiens)', 'pIC50', 7.00);
